pIC50 values recorded for Receptor tyrosine-protein kinase erbB-2 (Homo sapiens, UniProt P04626)
// scale note: pIC50 = -log10(conc_M); give the bare number

# count of solved cases: 5
>>> reported_value("CN1CCN(CCC#CC(=O)Nc2cc3c(Nc4ccc(F)c(Cl)c4)ncnc3cn2)CC1")
9.15
>>> reported_value("CN1CCN(CCC#CC(=O)Nc2cc3c(Nc4ccc(F)c(Br)c4)ncnc3cn2)CC1")
9.30
>>> reported_value("O=C(C#CCCN1CCOCC1)Nc1ccc2ncnc(Nc3ccc(F)c(Cl)c3)c2c1")
8.64
>>> reported_value("CCCC#CC(=O)Nc1cc2c(Nc3ccc(F)c(Cl)c3)ncnc2cn1")
8.42
>>> reported_value("O=C(C#CCCN1CCOCC1)Nc1cc2c(Nc3ccc(F)c(Cl)c3)ncnc2cn1")
9.10

Now examine the next entry.
Give me measured pIC50, please, for this molecule: "CC(C)N(CC#CC(=O)Nc1ccc2ncnc(Nc3ccc(F)c(Cl)c3)c2c1)C(C)C"
8.55
